assay_system: T1, cynomolgus monkey CD3 on cynomolgus monkey PBMC or T cell line HSC-F (cynomolgus monkey, UniProt Q95LI5 22-198)
T1 construct: whole, on cells; Native CD3 complex on monkey T cells; also called cynomolgus monkey CD3 (PBMC); cynomolgus monkey CD3 antigen
T1 sequence (Q95LI5 22-198): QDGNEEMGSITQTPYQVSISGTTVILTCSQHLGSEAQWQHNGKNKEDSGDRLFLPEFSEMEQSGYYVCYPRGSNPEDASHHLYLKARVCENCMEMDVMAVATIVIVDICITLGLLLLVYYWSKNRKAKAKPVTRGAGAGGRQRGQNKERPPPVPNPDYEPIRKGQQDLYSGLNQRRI
measurement_description: flow cytometry on cynomolgus monkey PBMC

{"columns": ["binder", "binding result"],
 "data": [
  ["C3E-7034 (humanized anti-CD3 scFv) (scFv) scFv: GEVQLVESGGGLVQPGGSLRLSCAASGVTFNYYGMSWIRQAPGKGLEWVASITNSGGRIYYPDSVKGRFTISRENTQKTLYLQMNSLRAEDTAVYYCTLDGRDGWVAYWGQGTLVTVSSGGGGSGGGGSGGGGSNFMLTQPHSVSESPGKTVTISCKRNTGNIGSNYVNWYQQHEGSSPTTIIYRDDKRPDGVSDRFSGSIDRSSKSASLTISNLKTEDEADYFCQSYSSGFIFGGGTKLTVLGAAAGAGGDYKDDDDKGAAAHHHHHH", "binds"]
]}
